Reported values of glycan array binding signal (z-score) for individual entries
target: Fuc(a1-2)Gal(b1-4)[Fuc(a1-3)]GlcNAc(b1-3)Gal(b1-4)[Fuc(a1-3)]GlcNAc(b1-3)Gal(b1-4)[Fuc(a1-3)]GlcNAc; experiment: glycan array binding signal (z-score within array); higher = stronger binding; conditions: glycan notation: IUPAC condensed, linker removed
Many of the other results were omitted from the sample, so the strongest signals are more common in it than they were.

For record PpFlo1 (Pichia pastoris) (protein) MGSSHHHHHHSSGLVPRGSHMQESGDGDISDSAYACDIDATRYDGFNATIYEFQPGDGRLTRDPVFMSTGYLNRTQLHSITGVTDPGFSIYTPGVPTTTLYGIPNVNWENLLLELKGYFRAEVSGDYGLSLRNIDDSAILFFGKETAFQCCNENSISNEASTDYSLFTIFRQEGDETTNLDSFTYTQYLEAGKYYPVRTFFVNIERHAVFNFTMTLPDGTELTDFHNYIYQFGALDEEQCQA the listed glycan array binding signal (z-score) is 0.218

Briefly, glycan array binding signal (z-score) measured for TAL6-4LysM (Trichoderma atroviride) (protein) AADSIPSISPTGIITPTPTQSGMVSNCNKFYDVHSNDGCSAIASSQHVDLSSLYKWNPAIKTDCSGLQASVYVCIGILTTSMSTTSKLPTTTSKPSTTSKPPTGITTPTPTQSGMVKNCNKFYDVHSGDGCSAIASSQKVNLSSFYLWNPAVKTDCSGLQASVFVCIGTLTTSMSTTTSKLPTTTSKPSTTSKPPTGIITPTPTQNGMVKNCNKFYDVHSGDGCSAIASSQKVNLSSFYLWNPAVKTDCSGLQASVFVCVGTATTTTAAGITTPTPTQSGMVSGCNKFYDVHAGDGCSAIASSQKIALSSLYKWNPAVKTDCSGLQASVYICIGVGNAAAARVTGALEQKLISEEDLNSAVDHHHHHH : 0.899

Item: PpFlo3 (Pichia pastoris) (protein) MGSSHHHHHHSSGLVPRGSHMQESGNGTTSDTAYACDIGATPFDGFNATIYQYQASDDNSIQDPVFMSTGYLQRNQLHSTTGVTNPGFNIFTAGVATTTLYGIPNVNYQNMLLELKGYFRADASGNYGLSLRNIDDSAILFFGRETAFECCNENLIPLDEAPTDYSLFTIKEGEASTNPDSYTYTQYLEAGRYYPVRTFFANIRTRAVFNFTMTLPDGSELTDFQNYIFQFGALNQ | glycan array binding signal (z-score): 4.32

Field glycan array binding signal (z-score) (entry SP16663B-bot-321-25-321 (Bacteroides ovatus) (protein) DDDDEVTMNSKFYLSTKVFPVDSYEASLSVILKDNSVVVNELQPNYRFVACATERLSKDVKITADSDDNLVSAYNKANDTEYNILPAENYSFTNKTVTIENGESVSGDSIKIELLNVGSLTTEGGYLLPVTISSIEGNNLDALSSNRGVVYLKIQNIHVNVESGQPAEGTLIADRSGWTVKVAPTTRGDAKNLIDGTNSDVARDGGAEYWLTVDIGKVQTLTGIRNKCYASSYSPTAVEVFTSSDGAKWKSIGAVTISKSGTQYIKFSKAVETRYLKYYVKQGPNTVSLTEFDLYAK ) reads -0.007

The binder identified as EUL D1A first (Oryza sativa) (protein) MFGFGHHHNQAPAAPSDPNQIFKIFCRANENYCLTVRDSAVVLAPVNPKDEHQHWFKDMRFSTKVKDGEGMPAFALVNKATGLAVKHSLGQSHPVKLVPFNPEYEDASVLWTESKDVGKGFRCIRMVNNTRLNLDAFHGDKDHGGVRDGTTVVLWEWCKGDNQSWKILPWGPEAHSSSPGAATILEQKLISEEDLNSAVDHHHHHH registered its glycan array binding signal (z-score) at 0.387

These data points were gathered from the supplement of paper PMC8728848.
